For each entry below, report its melting point value.

Worked set:
molecule=CC(C)(C)NC(=O)c1ccccc1C[C@@H](O)[C@@H](CSc1ccc2ccccc2c1)NC(=O)c1cccc2ccccc12 outcomemeasure="melting point" value="92 to 95 °C"
molecule="Cc1c(C(=O)NC(CSc2ccc3ccccc3c2)C(O)Cc2ccccc2C(=O)NC(C)(C)C)ccc(O)c1O (stereo not shown)" outcomemeasure="melting point" value="121 to 123 °C"
molecule="CC(C)(C)NC(=O)c1ccccc1CC(O)C(CSc1ccc2ccccc2c1)NC(=O)c1ccc(N)cc1Cl (stereo not shown)" outcomemeasure="melting point" value="102 to 104 °C"

# next molecule below
Note down melting point recorded for CC(C)(C)NC(=O)c1ccccc1C[C@@H](O)[C@@H](CSc1ccc2ccccc2c1)NC(=O)c1cccc(N)c1Cl
107 to 108 °C

* * *

- target: HIV-1 protease (Human immunodeficiency virus type 1 group M subtype B, UniProt P04585)
- protocolNotes: Fluorescence HIV-1 Protease Inhibitor Assay (Pandex)
- Assay type: biochemical
- Parameters: made in house; host or cells: E. coli K12 L507/pHP10D (NRRL B-18560)
- assayConditions: normalized to positive control (=1.0); * = a calculated average; read-out: Fluorescence Assay IC50 in ng/mL (converted)
// NB: equality with 500 nM counts as n; only IC50 strictly below is y

Please check: IC50 for COc1cccc(C(=O)NC(Cc2ccccc2)C(O)CN2CC3CCCCC3CC2C(=O)NC(C)(C)C)c1C (centres unmarked) [Example 13] , strictly under 500 nM or not?
n

Please check: IC50 for Cc1c(N)cccc1C(=O)NC(Cc1ccccc1)C(O)CN1CC2CCCCC2CC1C(=O)NC(C)(C)C (centres unmarked) [Example 18] , strictly under 500 nM or not?
y

* * *

- System: Viral SN123 infected CEM cells
- assayConditions: Human immunodeficiency virus 1, CCRF-CEM, read-out: Whole cell IC50 nM, CEM cells; values in parentheses are 35B in same assay
Categorize each record by its IC50 using lo = under 20 nM, med = from 20 nM up to 300 nM, hi = 300 nM and over

compound="Cc1c(OP(=O)(O)O)cccc1C(=O)N[C@@H](Cc1ccccc1)[C@H](O)CN1C[C@H]2CCCC[C@H]2C[C@H]1C(=O)NC(C)(C)C (relative stereo) [Example 78]" assignedcategory=lo
compound="Cc1c(O)cccc1C(=O)NC(CSc1ccc2ccccc2c1)C(O)CN1CC2CCCCC2CC1C(=O)NC(C)(C)C (centres unmarked) [Example 24]" assignedcategory=med
compound="Cc1c(F)cccc1C(=O)NC(Cc1ccccc1)C(O)CN1CC2CCCCC2CC1C(=O)NC(C)(C)C (centres unmarked) [Example 7]" assignedcategory=hi
compound="CC(C)(C)NC(=O)C1CC2CCCCC2CN1CC(O)C(CSc1ccccc1)NC(=O)c1cccc2ncccc12 (centres unmarked) [Example 31]" assignedcategory=hi
compound="CCc1c(O)cccc1C(=O)NC(Cc1ccccc1)C(O)CN1CC2CCCCC2CC1C(=O)NC(C)(C)C (centres unmarked) [Example 3]" assignedcategory=med
compound="CC(C)(C)NC(=O)C1CC2CCCCC2CN1CC(O)C(Cc1ccccc1)NC(=O)c1cccc(O)c1Cl (centres unmarked) [Example 11]" assignedcategory=med

Note: place this compound into its band. Item: Cc1c(O)cccc1C(=O)N[C@@H](Cc1ccccc1)[C@H](O)CN1CCN(Cc2cccnc2)C[C@H]1C(=O)NC(C)(C)C [Example 26]
med

Note: place this compound into its band. Item: CCCCc1c(O)cccc1C(=O)NC(Cc1ccccc1)C(O)CN1CC2CCCCC2CC1C(=O)NC(C)(C)C (centres unmarked) [Example 21]
hi

Note: place this compound into its band. Item: Cc1cnccc1C(=O)NC(CSc1ccccc1)C(O)CN1CC2CCCCC2CC1C(=O)NC(C)(C)C (centres unmarked) [Example 30]
hi

Note: place this compound into its band. Item: CC(C)c1c(O)cccc1C(=O)NC(Cc1ccccc1)C(O)CN1CC2CCCCC2CC1C(=O)NC(C)(C)C (centres unmarked) [Example 20]
med

Note: place this compound into its band. Item: Cc1c(O)cccc1C(=O)NC(Cc1ccccc1)C(O)CN1CC2CCCCC2CC1C(=O)NC(C)(C)C (centres unmarked) [Example 12]
lo
